MEASURED TARGET: T1, human VPAC2 receptor (human, UniProt P41587 24-438)
T1 sequence (looked up): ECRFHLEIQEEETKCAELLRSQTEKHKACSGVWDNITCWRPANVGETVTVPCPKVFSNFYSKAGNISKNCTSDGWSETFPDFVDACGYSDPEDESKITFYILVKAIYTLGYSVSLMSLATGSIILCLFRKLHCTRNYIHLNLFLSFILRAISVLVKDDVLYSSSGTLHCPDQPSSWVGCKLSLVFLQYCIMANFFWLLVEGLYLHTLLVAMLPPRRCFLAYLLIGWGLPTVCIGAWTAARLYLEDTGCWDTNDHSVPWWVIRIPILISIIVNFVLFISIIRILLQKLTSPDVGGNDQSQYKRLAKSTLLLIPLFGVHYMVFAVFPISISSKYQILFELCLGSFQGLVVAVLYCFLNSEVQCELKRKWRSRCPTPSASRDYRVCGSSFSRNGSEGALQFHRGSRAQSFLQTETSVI
EXPERIMENT SUMMARY: cell-based or functional assay
Where no end group is shown, it is not given here. [ ]: non-standard residue; d: D form. The star is where a group is joined. Met(O) = CS(=O)CC[C@H](N)C(=O)O; NMeV = CN[C@H](C(=O)O)C(C)C; Hexanoyl = CCCCCC(=O)*; Aib = CC(C)(N)C(=O)O; Mpa = O=C(O)CCS
# label = bin(measured EC50 cAMP, Alpha Screen), where bins are low bin: < 0.2 nM; mid bin: ≥ 0.2 nM and < 3 nM; high bin: ≥ 3 nM

BINDER	LABEL
Hexanoyl-HSDAVFTDNYTRLR[Aib]KVAA[Aib]KYLQSIKNKRYGGPSSGAPPPS (ends and bridges not checked) [P321]	mid bin

Task: Determine which band this binder sits in: [Mpa]HSDAVFTDNYTRLLAKLALQKYLQSIKNKRYGGPSSGAPPPS [P205]
Output: mid bin

Task: [Met(O)]HSDAVFTDNYTRLRKQVAAKKYLQSIKNKRYGGPSSGAPPPS (ends and bridges not checked) [P199] ?
Output: high bin

Task: Hexanoyl-HSDAVFTDNYTRLRKQVAAKKYLQFIKNKRYGGPSSGAPPPS [P112] ?
Output: low bin

Task: Hexanoyl-HSDAVFTDNYTRLRKQVAAKKYLQSWKNKRYGGPSSGAPPPS [P110] ?
Output: low bin

Task: Hexanoyl-HSDAVFTDNYTRLRKQVAAKK[Aib]LQSIKNKRYGGPSSGAPPPS (ends and bridges not checked) [P228] ?
Output: high bin

Task: Hexanoyl-HSDAVFTDNYTRLRKQVAAKQYLQSIKNKRYGGPSSGAPPPS [P183] ?
Output: low bin

Task: Hexanoyl-HSDA[NMeV]FTDNYTRLRKQVAAKKYLQSIKNKRYGGPSSGAPPPS [P211] ?
Output: high bin

Task: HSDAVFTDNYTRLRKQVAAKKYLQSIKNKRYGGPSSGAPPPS [P6] ?
Output: high bin

Task: Hexanoyl-HSDAVFTDNYTRLRKQVAAKKYLQYIKNKRYGGPSSGAPPPS [P127] ?
Output: mid bin

Task: MHSDAVFTDQYTRLRKQVAAKKYLQSIKQKRYGGPSSGAPPPS (N-terminal methionine added (M-)) [P100] ?
Output: mid bin
